assay: Confirmation screen for delayed death inhibitors of the malarial parasite plastid, 48 hour incubation; note: potency is the fitted concentration of half-maximal effect; nearly all actives have a fitted effect of over 65% in size; conditions: P. falciparum-infected erythrocytes, luciferase growth; series mostly up to 28.7 µM
In all, about 2,300 compounds went through this assay and about 1,200 (52%) were called active. Not shown: some 34% with an inconclusive outcome. So high a share suggests a set chosen from earlier hits. The list shows a part of the results.
endpoint label: Potency

Some solved entries appear below for comparison.
compound=O=C(c1cccc(Cl)c1)c1nn(-c2ccccc2)c(=O)cc1C(F)(F)F endpoint_result="12.6 µM (active)"
compound="CCc1nc(SCC(=O)N2c3ccccc3CC2C)c2c(C)c(C)sc2n1 (stereo not drawn)" endpoint_result="11.2 µM (active)"
compound=Cc1ccc(CS(=O)(=O)Cc2ccc(C(=O)NC3CCCC3)o2)cc1 endpoint_result="11.2 µM (active)"
compound="O=C(NC1CCCCC1)c1ccc(CS(=O)Cc2ccccc2Cl)o1 (stereo not drawn)" endpoint_result="12.6 µM (active)"
compound="Cc1sc2nc(C3CC3)nc(SCC(=O)N3c4ccccc4CC3C)c2c1C (stereo not drawn)" endpoint_result="14.1 µM (active)"
compound="O=C(CC1Sc2ccccc2NC1=O)OCc1cc(=O)oc2cc(O)ccc12 (stereo not drawn)" endpoint_result="11.2 µM (active)"

## Input Item CC(C)c1ccc(NC(=O)c2cc(S(=O)(=O)N3CCCC3)c[nH]2)cc1 has what recorded Potency?
## Output 12.6 µM (active)

## Input Item CCc1nc(SCC(=O)Nc2ccccc2OC)c2c(C)c(C)sc2n1 has what recorded Potency?
## Output 12.6 µM (active)
